So I've got a bunch of sequences here, and I need their PBM binding z-score values.
# System: PPARg DBDmut IVT, anti-PPARg (DBD mutation: PPARg1 K132A/R137A, NR concentration 270 nM)
# Experiment notes: PBM binding z-score (relative to random genomic background probes); higher = stronger binding; sequences stand for … in GC…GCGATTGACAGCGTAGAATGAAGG
Reply with the value as a number alone.

Readout PBM binding z-score for GATAGTTGGTCAGTAAAAGGTCACACACCGGTCG , test system PPARg DBDmut IVT, anti-PPARg (DBD mutation: PPARg1 K132A/R137A, NR concentration 270 nM), was 0.944

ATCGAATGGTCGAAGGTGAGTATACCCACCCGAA on PPARg DBDmut IVT, anti-PPARg (DBD mutation: PPARg1 K132A/R137A, NR concentration 270 nM) gives PBM binding z-score = 0.223

Form field, PBM binding z-score with PPARg DBDmut IVT, anti-PPARg (DBD mutation: PPARg1 K132A/R137A, NR concentration 270 nM), item CCTAGTTGGTCAAGGTCACGCACGCTATAGGTAC : 0.558

Let me check: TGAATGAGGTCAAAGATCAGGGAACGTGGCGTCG , system PPARg DBDmut IVT, anti-PPARg (DBD mutation: PPARg1 K132A/R137A, NR concentration 270 nM), measured PBM binding z-score is 0.903

Form field, PBM binding z-score with PPARg DBDmut IVT, anti-PPARg (DBD mutation: PPARg1 K132A/R137A, NR concentration 270 nM), item ATATGTAGGTTAGAGTCATTCAGAAAGTAGGGAA : 1.55

Record CAAGCTAGGTCAAAGGTCAAAGTCGAGCCAACCA has PPARg DBDmut IVT, anti-PPARg (DBD mutation: PPARg1 K132A/R137A, NR concentration 270 nM) PBM binding z-score equal to -0.285

With PPARg DBDmut IVT, anti-PPARg (DBD mutation: PPARg1 K132A/R137A, NR concentration 270 nM) as the test system, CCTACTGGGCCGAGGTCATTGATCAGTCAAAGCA showed PBM binding z-score of -1.27

Measured PBM binding z-score (PPARg DBDmut IVT, anti-PPARg (DBD mutation: PPARg1 K132A/R137A, NR concentration 270 nM)), entry CCGACGGGGGCAAGGTTACCATAACGCACAGCCA : 2.52

Reported PBM binding z-score (PPARg DBDmut IVT, anti-PPARg (DBD mutation: PPARg1 K132A/R137A, NR concentration 270 nM)) for entry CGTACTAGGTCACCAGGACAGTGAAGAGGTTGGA is 4.96

Form field, PBM binding z-score with PPARg DBDmut IVT, anti-PPARg (DBD mutation: PPARg1 K132A/R137A, NR concentration 270 nM), item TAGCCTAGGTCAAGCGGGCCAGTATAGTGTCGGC : -0.858

Measured PBM binding z-score (PPARg DBDmut IVT, anti-PPARg (DBD mutation: PPARg1 K132A/R137A, NR concentration 270 nM)), entry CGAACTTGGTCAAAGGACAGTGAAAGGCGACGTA : -0.436

Form field, PBM binding z-score with PPARg DBDmut IVT, anti-PPARg (DBD mutation: PPARg1 K132A/R137A, NR concentration 270 nM), item CGAACTAGGTCACCAGAACAGTGAAGAGGTTGGA : 1.39
